Entries and their measured IC50 follow.
# Tested on: HUVEC
# test.protocol: Inhibition of microcapillary growth in HUVEC cells
# Assay type: functional, cell-based
# assay.setup: Homo sapiens
Just the number in nM, nothing appended.

INSERT INTO results (compound_structure, tgt, experimental_endpoint, data_value) VALUES
  ('COc1cc(OC)cc(-c2cc3cnc(N)nc3nc2NC(=O)NC(C)(C)C)c1', 'HUVEC', 'IC50', 100),
  ('COc1cc(OC)cc(-c2cc3cnc(NC(C)=O)cc3nc2NC(=O)NC(C)(C)C)c1', 'HUVEC', 'IC50', 0.01),
  ('COc1cc(OC)cc(-c2cc3cnc(N)cc3nc2NC(=O)NC(C)(C)C)c1', 'HUVEC', 'IC50', 100);

Shifting focus to the molecule that follows.
Record summary for COc1cc(OC)cc(-c2cc3cnc(NC(=O)NC(C)(C)C)cc3nc2NC(=O)NC(C)(C)C)c1 : reported IC50 = 10

Data origin, for the record: ChEMBL document CHEMBL1133506
